Test system: Enterobacter aerogenes ATCC 35029
Format: cell-based
protocol-conditions: ATCC 35029
Numbered stars: 1 amine (or outer) side, 2 acyl side, 3 side chain; on linkers, the order of the positions; unused ones are H or OH. Square brackets hold non-standard residues; d marks the D form. Peptide text beside a SMILES is read from it. X1 = CC(C)[C@H](C)N(CC(=O)[*:2])[*:1]; Nspe = C[C@H](NCC(=O)O)c1ccccc1; Nphe = O=C(O)CNCc1ccccc1; Nlys = NCCCCNCC(=O)O
Reported MIC Enterobacter aerogenes ATCC 35029 is given for each of the following compounds.
Answer with a number only, understood to be in µM.

C[C@@H](c1ccccc1)N(CC(N)=O)C(=O)CN(C(=O)CN(CCCCN)C(=O)[C@@H]1CCCN1C(=O)CN(C(=O)CN(CCCCN)C(=O)CN(C(=O)CN(C(=O)CN(CCCCN)C(=O)CN(C(=O)CN(C(=O)CNCCCCN)[C@@H](C)c1ccccc1)[C@@H](C)c1ccccc1)[C@@H](C)c1ccccc1)[C@@H](C)c1ccccc1)[C@@H](C)c1ccccc1)[C@@H](C)c1ccccc1 [1-Pro9] (H-[Nlys][Nspe][Nspe][Nlys][Nspe][Nspe][Nlys][Nspe]P[Nlys][Nspe][Nspe]-NH2) | 36.5

The measured MIC Enterobacter aerogenes ATCC 35029 associated with CC(C)[C@H](C)N(CC(=O)N(CC(=O)N(CCCCN)CC(=O)N(CC(=O)N(CC(=O)N(CCCCN)CC(=O)N(CC(=O)N(CC(=O)N(CCCCN)CC(=O)N(CC(=O)N(CC(N)=O)[C@@H](C)c1ccccc1)[C@@H](C)C(C)C)[C@@H](C)c1ccccc1)[C@@H](C)C(C)C)[C@@H](C)c1ccccc1)[C@@H](C)C(C)C)[C@@H](C)c1ccccc1)C(=O)CNCCCCN [1-Nsdp2,5,8,11, H-(Nlys-Nsdp-Nspe)4-NH2] (H-[Nlys][X1][Nspe][Nlys][X1][Nspe][Nlys][X1][Nspe][Nlys][X1][Nspe]-NH2) reads 19.0

The measured MIC Enterobacter aerogenes ATCC 35029 associated with C[C@@H](c1ccccc1)N(CC(N)=O)C(=O)CN(C(=O)CN(CCCCN)C(=O)CN(C(=O)CN(C(=O)CN(CCCCN)C(=O)[C@@H]1CCCN1C(=O)CN(C(=O)CN(CCCCN)C(=O)CN(C(=O)CN(C(=O)CNCCCCN)[C@@H](C)c1ccccc1)[C@@H](C)c1ccccc1)[C@@H](C)c1ccccc1)[C@@H](C)c1ccccc1)[C@@H](C)c1ccccc1)[C@@H](C)c1ccccc1 [1-Pro6] (H-[Nlys][Nspe][Nspe][Nlys][Nspe]P[Nlys][Nspe][Nspe][Nlys][Nspe][Nspe]-NH2) reads 72.9

The measured MIC Enterobacter aerogenes ATCC 35029 associated with C[C@@H](c1ccccc1)N(CC(N)=O)C(=O)CN(Cc1ccccc1)C(=O)CN(CCCCN)C(=O)CN(C(=O)CN(Cc1ccccc1)C(=O)CN(CCCCN)C(=O)CN(C(=O)CN(Cc1ccccc1)C(=O)CN(CCCCN)C(=O)CN(C(=O)CN(Cc1ccccc1)C(=O)CNCCCCN)[C@@H](C)c1ccccc1)[C@@H](C)c1ccccc1)[C@@H](C)c1ccccc1 [1-Npm2,5,8,11, H-(Nlys-Npm-Nspe)4-NH2] (H-[Nlys][Nphe][Nspe][Nlys][Nphe][Nspe][Nlys][Nphe][Nspe][Nlys][Nphe][Nspe]-NH2) reads 36.3

The measured MIC Enterobacter aerogenes ATCC 35029 associated with NCCCCNCC(=O)N(CC(=O)N(CC(=O)N(CCCCN)CC(=O)N(CC(=O)N(CC(=O)N(CCCCN)CC(=O)N(CC(=O)N(CC(=O)N(CCCCN)CC(=O)N(CC(=O)N(CC(N)=O)Cc1ccccc1)Cc1ccccc1)Cc1ccccc1)Cc1ccccc1)Cc1ccccc1)Cc1ccccc1)Cc1ccccc1)Cc1ccccc1 [1achiral, H-(Nlys-Npm-Npm)4-NH2] (H-[Nlys][Nphe][Nphe][Nlys][Nphe][Nphe][Nlys][Nphe][Nphe][Nlys][Nphe][Nphe]-NH2) reads 75.0
